Origin of measurements: PubChem BioAssay (NCI)

Listing of recorded growth by entry.
- Tested on: NCI-H522 lung
- test.protocol: NCI-60 one-dose screen, 48 h (100 = growth as untreated, 0 = no growth, -100 = all killed)
- measurement.setup: 10 µM unless noted
Compounds without any hit were thinned out: in the full panel of roughly 83,000, 20% have a hit.
Enter your answer as a number in %; do not include the unit.

INSERT INTO assay_data (compound, assay_endpoint, reported) VALUES
  ('Nc1n[nH]c2cccc(C#Cc3cccc(C(=O)Nc4cccc(C(F)(F)F)c4)c3)c12', 'growth', 60.9),
  ('CCOC(=O)c1cc(C(=O)c2ccc(OC)c(OC)c2)n2ccc(/C=C/c3cc[n+](CC(=O)c4ccc(OC)c(OC)c4)cc3)cc12', 'growth', 85.5);

Q: Look up and report measured growth (NCI-H522 lung) for the following compound: COc1cc(/C=C\c2cc(OC)c(OC)c(OC)c2)cc(N)c1OC
Result: 58.6

Q: Look up and report measured growth (NCI-H522 lung) for the following compound: COc1cccc(-c2cc(C(=O)Nc3ccc(/C=C/c4ccc(OC5CCN(C)CC5)cc4)cc3)ccc2OC)c1
Result: -46.3

Q: Look up and report measured growth (NCI-H522 lung) for the following compound: CCN(CC)CCOc1ccc(NC(=O)C(C(C)C)N2C(=O)/C(=C/c3ccc(Br)cc3)SC2=S)cc1 (centres undefined)
Result: 96.3

Q: Look up and report measured growth (NCI-H522 lung) for the following compound: N#CC(C#N)=Cc1cc2ccccc2nc1Oc1ccc(C(F)(F)F)cc1
Result: 91.8

====

- Tested on: SK-MEL-2 melanoma
- test.protocol: NCI-60 one-dose screen, 48 h (100 = growth as untreated, 0 = no growth, -100 = all killed)
- measurement.setup: 10 µM unless noted
This is part of a sample that, as a whole, favours compounds with a hit. Of some 83,000 tested, about 20% had one in any assay.
Field: label. Allowed values: 1 (growth < 90%) or 0 (growth >= 90%).

Solved cases below.
INSERT INTO results (compound, label_class) VALUES
  ('O=C(Cn1c[n+](CC(=O)c2ccc(-c3ccccc3)cc2)c2ccccc21)Nc1cccc2cccnc12', 1),
  ('COc1ccc(C(=O)C2C(C#N)C(C#N)C3C=Cc4ccccc4N32)cc1 (configuration not stated)', 1);

Q: Does this compound meet the criterion growth < 90%? O=C(CSc1nc2ccccc2[nH]1)NCc1ccccc1
Result: 0

Q: Does this compound meet the criterion growth < 90%? O=C1c2ccccc2C(=O)c2c([N+](=O)[O-])ccc(Cl)c21
Result: 0

Q: Does this compound meet the criterion growth < 90%? O=C1Nc2ccc(F)cc2/C1=C\c1c(-c2ccccc2)nc2ccccn12
Result: 1

====

- Tested on: CCRF-CEM leukemia
- test.protocol: NCI-60 one-dose screen, 48 h
- measurement.setup: 10 µM unless noted
- Method: Growth inhibition of the CCRF-CEM human tumor cell line is measured as a screen for anti-cancer activity. Cells are grown in 96 well plates and exposed to the test compound for 48 hours. Compounds are tested at a single concentration, which is 10^-5 M for most compounds. The reported endpoint is percent growth (GI% or GIPRCNT), where numbers from 0 - 100% represent growth inhibition, and numbers from -100% - 0 represent cell death. For example, a value of 40 represents 60% growth inhibition. […]
This is part of a sample that, as a whole, favours compounds with a hit. Of some 83,000 tested, about 20% had one in any assay. Active and inactive are the calls of the source. The calls were made as follows: active = growth percent below 10; inactive = the rest.
Log the outcome using a class from true (active), false (inactive)

Solved cases below.
INSERT INTO assay_data (compound, label_class) VALUES
  ('COc1ccc(-c2nc3sccn3c2/C=C/C(=O)c2ccc3c(c2)OCO3)cc1', 'false'),
  ('COC(=O)C1=C(C(=O)ON)C2C=CC1(C(Cc1ccccc1)Nc1ccccc1)O2 (stereo not drawn)', 'true'),
  ('COc1cc(NC(C)CCCNC(=O)CCC(=O)NCCCNCCCCCCCCNCCCNC(=O)CCC(=O)NCCCC(C)Nc2cc(OC)cc3cccnc23)c2ncccc2c1 (stereo not drawn)', 'false'),
  ('C=C1C(=O)O[C@H]2[C@H]1CC/C(COC(=O)NCc1c[nH]c3ccc(Cl)cc13)=C\CC[C@@]1(C)O[C@@H]21', 'true'),
  ('CCN1CCN(CCNc2nccc(-c3c(-c4cccc(OC)c4)nc4occn34)n2)S1(=O)=O', 'false');

Q: Per the records of this test, what outcome belongs to Oc1ccc(OCCOc2ccc(O)cc2)cc1 ?
Result: false

Q: Per the records of this test, what outcome belongs to CCOC(=O)c1cc(C(=O)c2cc(OC)cc(OC)c2)n2ccc3ccccc3c12 ?
Result: false

Q: Per the records of this test, what outcome belongs to Cc1nc2ccc(Cl)cn2c1-c1nnc(SCc2ccc([N+](=O)[O-])cc2)o1 ?
Result: false

Q: Per the records of this test, what outcome belongs to O=C(O)c1ccc2c(c1)C(=O)N(Cc1ccccc1)C2=O ?
Result: false

Q: Per the records of this test, what outcome belongs to C[C@@H](Nc1ncnc2ccc(-c3cnc(N)nc3)cc12)c1ccc(F)cc1 ?
Result: false

====

- Tested on: HCT-15 colon
- test.protocol: NCI-60 one-dose screen, 48 h (100 = growth as untreated, 0 = no growth, -100 = all killed)
- measurement.setup: 10 µM unless noted
Compounds without any hit were thinned out: in the full panel of roughly 83,000, 20% have a hit.
assay.endpoint: growth (%)
Enter your answer as a number in %; do not include the unit.

Examples with answers:
INSERT INTO assay_data (compound, assayed_system, reported) VALUES
  ('O=C(C[n+]1cccc2ccccc21)c1ccc(O)c(O)c1', 'HCT-15 colon', 20.8),
  ('COc1ccc(C(=O)/C=C/c2cc3ccccc3n3nnnc23)cc1', 'HCT-15 colon', 97.3),
  ('Cc1ccc(-n2c3c(c(-c4ccccc4)c2-c2ccccc2)C2=NCCN2C=N3)cc1', 'HCT-15 colon', 81.3),
  ('Cc1ccc(NS(=O)(=O)c2ccc(-c3cnc(C4CC4)o3)cc2)cc1C(F)(F)F', 'HCT-15 colon', 35.2);

Q: Tell me growth reported for O=C(/C=C/c1c(-c2ccc(Cl)cc2)nn(-c2ccccc2)c1C(F)(F)F)c1ccc(Cl)cc1
Result: 77.7

Q: Tell me growth reported for Cc1cc2c(C(=O)NCC#N)cccc2n1-c1nc2c(c(NCc3ccccc3)n1)CCCC2
Result: -52.8

====

- Test system: HT29 colon
- test.protocol: NCI-60 one-dose screen, 48 h (100 = growth as untreated, 0 = no growth, -100 = all killed)
- measurement.setup: 10 µM unless noted
- Description: Growth inhibition of the HT29 human tumor cell line is measured as a screen for anti-cancer activity. Cells are grown in 96 well plates and exposed to the test compound for 48 hours. Compounds are tested at a single concentration, which is 10^-5 M for most compounds. The reported endpoint is percent growth (GI% or GIPRCNT), where numbers from 0 - 100% represent growth inhibition, and numbers from -100% - 0 represent cell death. For example, a value of 40 represents 60% growth inhibition. […]
This is part of a sample that, as a whole, favours compounds with a hit. Of some 83,000 tested, about 20% had one in any assay.
assay.endpoint: growth (%)
Enter your answer as a number in %; do not include the unit.

Examples with answers:
INSERT INTO assay_data (compound, measurement_unit, reported) VALUES
  ('Cc1nc(N)nc(N[C@@H](C)c2nc3cccc(NCc4ccc(C(=O)NO)cc4)c3c(=O)n2-c2ccccc2)n1', '%', 77.3),
  ('O=C(CCN1CCCC1)Nc1ccc2c(NCCCc3ccccc3)c3ccccc3nc2c1', '%', 3.74),
  ('NS(=O)(=O)c1ccc(CCn2c(SCC(=O)c3ccc(Cl)cc3)nc3ccccc3c2=O)cc1', '%', 102);

Q: Tell me growth reported for CC(=O)O[C@@H]1C2CCC3C(CC[C@@]4(C)C3CC[C@@H]4C(C)N(C)C)[C@@]2(C)CC[C@@H]1NC(=O)C=C(C)C (some centres not stated)
Result: -39.5

Q: Tell me growth reported for COc1ccc(/C=C/c2nc(Nc3ccc(S(=O)(=O)Nc4nc(C)cc(C)n4)cc3)c3ccccc3n2)cc1
Result: 62.2

Q: Tell me growth reported for O=C(Nc1ccc(NC(=O)c2cc(=O)[nH]c3ccccc23)cc1)Nc1cccc(Cl)c1
Result: 88.4

Q: Tell me growth reported for Cc1nc2sccn2c1-c1nc2sccn2c1/C=C1/C(=O)Nc2ccccc21
Result: 0.756

Q: Tell me growth reported for Cc1nn(-c2ccccc2)c(Cl)c1/C=C/C(=O)c1ccc(F)cc1
Result: 91.1

Q: Tell me growth reported for COc1cc2nc(-c3ccc(Cl)cc3)cc(OCCCN3CCCC3)c2cc1OC
Result: 23.8

Q: Tell me growth reported for CC(C)c1ccc(Nc2ccc3c(OCCCN4CCN(C)CC4)cccc3n2)cc1
Result: -50.3

Q: Tell me growth reported for COc1cc(C(=O)Nc2cc3c(cc2Oc2cc(C)cc(C)c2)C(=O)N(C)[C@@H](CC(=O)N(C)O)C(=O)N3)c(Br)c(OC)c1OC
Result: -14.5

Q: Tell me growth reported for O=C1C=CC(=O)N1c1cccc(Cl)c1
Result: 85.9

Q: Tell me growth reported for O=C(C1CCC1)N1N=C(c2ccc(-n3ccc(C(F)(F)F)n3)cc2)CC1c1ccc[nH]1 (configuration not stated)
Result: 89.8

Q: Tell me growth reported for C=C1C(=O)O[C@H]2[C@H]1CC/C(CNC(=O)CCc1ccc(OC)cc1)=C\CC[C@@]1(C)O[C@@H]21
Result: 12.1

Q: Tell me growth reported for COc1cc(/C=C/c2cc(O)c(C(C)=O)c(O)c2)cc2c1O[C@]1(C)CC[C@@H](O)C(C)(C)[C@H]1C2
Result: 34.9

Q: Tell me growth reported for C[C@H]1[C@H]2[C@H]3CC[C@@H]4[C@@]5(C)CC[C@H](O)C(C)(C)[C@@H]5CC[C@@]4(C)[C@]3(C)CC[C@]23CO[C@]1(C)[C@@H](C(=O)/C=C\c1ccco1)C3
Result: 98.1

Q: Tell me growth reported for Cc1cnc(C(=O)Nc2nc3ccc(S(=O)(=O)Nc4ccc(C(C)(C)C)cc4)cc3[nH]2)cn1
Result: 12.8
